# credit: ChEMBL document CHEMBL4706681

protocol-details: Effect on locomotor activity in CD1 mouse assessed as total distance traveled at 30 mg/kg, po administered via gavage for 7 days by open field test
Format: ADME, organism-based
cond: in vivo, 168 h, time 7 day
measure: Activity

Record excerpt, results attached:
1) COc1ccc(C2=NN(C(=O)Cn3c(=O)oc4ccc(C)cc43)C(c3cccc(OC)c3OC)C2)cc1 (stereo not given); Non-Toxic
2) COc1ccc(C(/C=C/c2cccc(OC)c2OC)=N/NC(=O)Cn2c(=O)oc3ccc(Cl)cc32)cc1; Non-Toxic
3) COc1ccc(C2=NN(C(=O)Cn3c(=O)oc4ccccc43)C(c3ccccc3Cl)C2)cc1 (stereo not given); Non-Toxic
4) COc1cccc(C2CC(c3ccccc3)=NN2C(=O)Cn2c(=O)oc3ccccc32)c1 (stereo not given); Non-Toxic

Okay, now this molecule:
Documented Activity of COc1ccc(C2CC(c3ccccc3)=NN2C(=O)Cn2c(=O)oc3ccccc32)cc1OC (stereo not given) : Non-Toxic

* * *

protocol-details: Selectivity index, ratio of Ki for inhibition of recombinant human MAO-A to Ki for inhibition of recombinant human MAO-B using p-tyramine as substrate
measure: Ratio Ki
// no unit string in output, number only

1) COc1ccccc1C1=NN(C(=O)Cn2c(=O)oc3ccc(C)cc32)C(c2ccccc2Cl)C1 (stereo not given); 0.019

Documented Ratio Ki of COc1ccc(C2CC(c3ccccc3)=NN2C(=O)Cn2c(=O)oc3ccc(Cl)cc32)cc1OC (stereo not given) : 0.06

* * *

protocol-details: Cytotoxicity against human HepG2 cells assessed as cell viability at 7.5 uM incubated for 2 hrs by MTT assay relative to control
Format: cell-based
cond: read-out: Activity
measure: viability at 2 h, 7.5 µM (%)
# output: bare number, implied unit %

Record excerpt, results attached:
1) COc1ccccc1/C=C/C(=N\NC(=O)Cn1c(=O)oc2ccc(Cl)cc21)c1ccccc1; 91.3
2) COc1ccc(C2=NN(C(=O)Cn3c(=O)oc4ccc(C)cc43)C(c3cccc(OC)c3OC)C2)cc1 (stereo not given); 101
3) NCCNC(=O)c1ccc(Cl)cn1 [LAZABEMIDE]; 92.4

Documented viability at 2 h, 7.5 µM of COc1cccc(C2CC(c3ccccc3)=NN2C(=O)Cn2c(=O)oc3ccccc32)c1 (stereo not given) : 96.2

Documented viability at 2 h, 7.5 µM of COc1ccc(C(/C=C/c2cccc(OC)c2OC)=N/NC(=O)Cn2c(=O)oc3ccc(Cl)cc32)cc1 : 118

* * *

system: Amine oxidase [flavin-containing] B (Homo sapiens, UniProt P27338)
Sequence (P27338 whole entry): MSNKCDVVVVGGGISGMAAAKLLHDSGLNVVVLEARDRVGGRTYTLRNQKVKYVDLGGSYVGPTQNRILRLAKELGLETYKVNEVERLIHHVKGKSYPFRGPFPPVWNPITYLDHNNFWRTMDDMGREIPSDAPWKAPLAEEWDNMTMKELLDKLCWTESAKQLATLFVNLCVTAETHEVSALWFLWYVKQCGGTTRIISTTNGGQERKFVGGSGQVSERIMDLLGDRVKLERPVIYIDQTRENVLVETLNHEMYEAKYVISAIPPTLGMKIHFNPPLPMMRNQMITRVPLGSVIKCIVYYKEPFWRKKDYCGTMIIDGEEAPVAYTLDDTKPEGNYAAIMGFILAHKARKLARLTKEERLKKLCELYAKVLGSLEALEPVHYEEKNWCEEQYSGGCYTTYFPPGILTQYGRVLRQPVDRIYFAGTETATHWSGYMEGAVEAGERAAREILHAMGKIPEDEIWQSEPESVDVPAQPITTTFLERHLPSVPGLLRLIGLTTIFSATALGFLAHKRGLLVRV
protocol-details: Inhibition of recombinant human MAO-B expressed in baculovirus infected BTI insect cells using p-tyramine as substrate incubated for 30 mins by Amplex red reagent based fluorescence analysis
Kindly apply the following: condition met if Ki is less than 10 µM, condition not met in every other case.

1. Cc1ccc(C2=NN(C(=O)Cn3c(=O)oc4ccc(C)cc43)C(c3ccccc3)C2)cc1 (centres undefined); condition not met
2. COc1ccc(C2=NN(C(=O)Cn3c(=O)oc4ccc(Cl)cc43)C(c3cccc(OC)c3OC)C2)cc1 (centres undefined); condition not met
3. COc1ccc(C2=NN(C(=O)Cn3c(=O)oc4ccc(Cl)cc43)C(c3ccccc3Cl)C2)cc1 (centres undefined); condition not met

QUERY: State whether 10 µM exceeds Ki recorded for COc1ccc(C2=NN(C(=O)Cn3c(=O)oc4ccc(Cl)cc43)C(c3ccccc3)C2)cc1 (centres undefined) .
RESULT: condition met

QUERY: State whether 10 µM exceeds Ki recorded for COc1ccc(C2CC(c3ccccc3)=NN2C(=O)Cn2c(=O)oc3ccc(Cl)cc32)cc1OC (centres undefined) .
RESULT: condition not met

QUERY: State whether 10 µM exceeds Ki recorded for COc1ccc(C2=NN(C(=O)Cn3c(=O)oc4ccc(C)cc43)C(c3ccccc3Cl)C2)cc1 (centres undefined) .
RESULT: condition met

QUERY: State whether 10 µM exceeds Ki recorded for COc1ccccc1/C=C/C(=N\NC(=O)Cn1c(=O)oc2ccc(Cl)cc21)c1ccccc1 .
RESULT: condition met

QUERY: State whether 10 µM exceeds Ki recorded for COc1ccc(C2CC(c3ccccc3)=NN2C(=O)Cn2c(=O)oc3ccc(C)cc32)cc1OC (centres undefined) .
RESULT: condition not met

QUERY: State whether 10 µM exceeds Ki recorded for COc1ccccc1C(/C=C/c1ccccc1)=N/NC(=O)Cn1c(=O)oc2ccc(C)cc21 .
RESULT: condition not met

QUERY: State whether 10 µM exceeds Ki recorded for COc1ccc(C2CC(c3ccccc3)=NN2C(=O)Cn2c(=O)oc3ccccc32)cc1OC (centres undefined) .
RESULT: condition not met

QUERY: State whether 10 µM exceeds Ki recorded for COc1ccccc1C(/C=C/c1ccccc1Cl)=N/NC(=O)Cn1c(=O)oc2ccccc21 .
RESULT: condition not met

QUERY: State whether 10 µM exceeds Ki recorded for COc1cccc(C2CC(c3ccccc3)=NN2C(=O)Cn2c(=O)oc3ccc(C)cc32)c1 (centres undefined) .
RESULT: condition not met

QUERY: State whether 10 µM exceeds Ki recorded for COc1ccc(C2=NN(C(=O)Cn3c(=O)oc4ccc(C)cc43)C(c3ccccc3)C2)cc1 (centres undefined) .
RESULT: condition met

* * *

protocol-details: Cytotoxicity against human HepG2 cells assessed as cell viability at 7.5 uM incubated for 2 hrs by MTT assay relative to control
Type: cell-based
cond: read-out: Activity
measure: viability at 2 h, 7.5 µM (%)
# output: bare number, implied unit %

Record excerpt, results attached:
1. COc1ccc(C2CC(c3ccccc3)=NN2C(=O)Cn2c(=O)oc3ccccc32)cc1OC (stereo not given); 90.4
2. C#CCN(C)[C@H](C)Cc1ccccc1 [SELEGILINE]; 90
3. COc1ccc(C2=NN(C(=O)Cn3c(=O)oc4ccccc43)C(c3ccccc3Cl)C2)cc1 (stereo not given); 91.2
4. COc1ccccc1C(/C=C/c1ccccc1Cl)=N/NC(=O)Cn1c(=O)oc2ccc(Cl)cc21; 92.1

Okay, now this compound:
Documented viability at 2 h, 7.5 µM of O=C(NCCN1CCOCC1)c1ccc(Cl)cc1 [MOCLOBEMIDE] : 90.8

* * *

system: Amine oxidase [flavin-containing] A (Homo sapiens, UniProt P21397)
Sequence (P21397 whole entry): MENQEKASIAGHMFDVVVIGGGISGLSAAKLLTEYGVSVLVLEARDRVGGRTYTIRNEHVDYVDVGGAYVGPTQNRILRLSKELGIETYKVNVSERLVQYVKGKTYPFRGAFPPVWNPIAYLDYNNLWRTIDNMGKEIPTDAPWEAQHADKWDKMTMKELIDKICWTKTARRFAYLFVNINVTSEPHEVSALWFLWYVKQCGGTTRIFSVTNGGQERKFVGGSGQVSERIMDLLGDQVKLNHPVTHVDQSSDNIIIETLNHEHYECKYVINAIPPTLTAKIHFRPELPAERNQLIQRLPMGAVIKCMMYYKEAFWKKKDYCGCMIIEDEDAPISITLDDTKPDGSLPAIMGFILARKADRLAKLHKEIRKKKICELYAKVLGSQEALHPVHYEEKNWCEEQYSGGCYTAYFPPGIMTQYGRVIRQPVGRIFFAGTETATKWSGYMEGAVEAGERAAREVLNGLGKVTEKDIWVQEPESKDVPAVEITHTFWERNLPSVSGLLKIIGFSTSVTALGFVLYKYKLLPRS
protocol-details: Reversible inhibition of human MAO-A assessed as residual enzyme activity at 4 fold IC50 incubated for 15 mins and measured 24 hrs post dialysis by dialysis method relative to control
cond: 24.25 h, time 1455 min
A collection of compounds and their measured Activity

1) COc1ccc(C2=NN(C(=O)Cn3c(=O)oc4ccccc43)C(c3ccccc3Cl)C2)cc1 (centres undefined); 90.16%

Okay, now this compound:
Documented Activity of COc1ccc(C(/C=C/c2cccc(OC)c2OC)=N/NC(=O)Cn2c(=O)oc3ccc(Cl)cc32)cc1 : 93.57%

* * *

system: UniProt P27338
protocol-details: Reversible inhibition of human MAO-B assessed as residual enzyme activity at 4 fold IC50 incubated for 15 mins and measured before dialysis relative to control
measure: Activity (%)
# output: bare number, implied unit %

Record excerpt, results attached:
1. COc1ccccc1C(/C=C/c1ccccc1Cl)=N/NC(=O)Cn1c(=O)oc2ccc(Cl)cc21; 77.22
2. COc1ccc(C(/C=C/c2cccc(OC)c2OC)=N/NC(=O)Cn2c(=O)oc3ccc(Cl)cc32)cc1; 82.37
3. COc1ccc(C2CC(c3ccccc3)=NN2C(=O)Cn2c(=O)oc3ccccc32)cc1OC (centres undefined); 78.9

Okay, now this compound:
Documented Activity of COc1cccc(C2CC(c3ccccc3)=NN2C(=O)Cn2c(=O)oc3ccccc32)c1 (centres undefined) : 85

* * *

system: Amine oxidase [flavin-containing] A (Homo sapiens, UniProt P21397)
protocol-details: Inhibition of recombinant human MAO-A expressed in baculovirus infected BTI insect cells using p-tyramine as substrate incubated for 30 mins by Amplex red reagent based fluorescence analysis
measure: log10 Ki (log10 of the value in nM)
Note the log scale: values are log10 of Ki expressed in nM.

Record excerpt, results attached:
1) COc1cccc(C2=NN(C(=O)Cn3c(=O)oc4ccccc43)C(c3ccccc3Cl)C2)c1 (centres undefined); 1.78
2) COc1ccc(C2=NN(C(=O)Cn3c(=O)oc4ccccc43)C(c3cccc(OC)c3OC)C2)cc1 (centres undefined); 2.10
3) COc1ccc(C2=NN(C(=O)Cn3c(=O)oc4ccccc43)C(c3ccccc3)C2)cc1 (centres undefined); 1.04

Okay, now this compound:
Documented log10 Ki of COc1ccccc1/C=C/C(=N\NC(=O)Cn1c(=O)oc2ccc(Cl)cc21)c1ccccc1 : 0.00

* * *

A collection of molecules and their measured viability at 2 h, 15 µM
protocol-details: Cytotoxicity against human HepG2 cells assessed as cell viability at 15 uM incubated for 2 hrs by MTT assay relative to control
Format: cell-based
cond: read-out: Activity
# output: bare number, implied unit %

Record excerpt, results attached:
1) NCCNC(=O)c1ccc(Cl)cn1 [LAZABEMIDE]; 89.7
2) COc1ccc(C2=NN(C(=O)Cn3c(=O)oc4ccc(C)cc43)C(c3cccc(OC)c3OC)C2)cc1 (stereo not given); 99.6
3) COc1ccc(C2CC(c3ccccc3)=NN2C(=O)Cn2c(=O)oc3ccccc32)cc1OC (stereo not given); 88.2
4) COc1ccccc1C(/C=C/c1ccccc1Cl)=N/NC(=O)Cn1c(=O)oc2ccc(Cl)cc21; 90.6
5) C#CCN(C)[C@H](C)Cc1ccccc1; 87.2
6) COc1ccc(C2=NN(C(=O)Cn3c(=O)oc4ccccc43)C(c3ccccc3Cl)C2)cc1 (stereo not given); 90
7) COc1cccc(C2CC(c3ccccc3)=NN2C(=O)Cn2c(=O)oc3ccccc32)c1 (stereo not given); 88.3
8) COc1ccc(C(/C=C/c2cccc(OC)c2OC)=N/NC(=O)Cn2c(=O)oc3ccc(Cl)cc32)cc1; 99.1
9) O=C(NCCN1CCOCC1)c1ccc(Cl)cc1 [MOCLOBEMIDE]; 88.5

Okay, now this molecule:
Documented viability at 2 h, 15 µM of COc1ccccc1/C=C/C(=N\NC(=O)Cn1c(=O)oc2ccc(Cl)cc21)c1ccccc1 : 89
